Overview of recorded pKd for various binders
Target: T1, EsCas13d, nuclease-dead (Eubacterium siraeum, UniProt B0MS50, R295A;H300A;R849A;H854A)
T1 sequence: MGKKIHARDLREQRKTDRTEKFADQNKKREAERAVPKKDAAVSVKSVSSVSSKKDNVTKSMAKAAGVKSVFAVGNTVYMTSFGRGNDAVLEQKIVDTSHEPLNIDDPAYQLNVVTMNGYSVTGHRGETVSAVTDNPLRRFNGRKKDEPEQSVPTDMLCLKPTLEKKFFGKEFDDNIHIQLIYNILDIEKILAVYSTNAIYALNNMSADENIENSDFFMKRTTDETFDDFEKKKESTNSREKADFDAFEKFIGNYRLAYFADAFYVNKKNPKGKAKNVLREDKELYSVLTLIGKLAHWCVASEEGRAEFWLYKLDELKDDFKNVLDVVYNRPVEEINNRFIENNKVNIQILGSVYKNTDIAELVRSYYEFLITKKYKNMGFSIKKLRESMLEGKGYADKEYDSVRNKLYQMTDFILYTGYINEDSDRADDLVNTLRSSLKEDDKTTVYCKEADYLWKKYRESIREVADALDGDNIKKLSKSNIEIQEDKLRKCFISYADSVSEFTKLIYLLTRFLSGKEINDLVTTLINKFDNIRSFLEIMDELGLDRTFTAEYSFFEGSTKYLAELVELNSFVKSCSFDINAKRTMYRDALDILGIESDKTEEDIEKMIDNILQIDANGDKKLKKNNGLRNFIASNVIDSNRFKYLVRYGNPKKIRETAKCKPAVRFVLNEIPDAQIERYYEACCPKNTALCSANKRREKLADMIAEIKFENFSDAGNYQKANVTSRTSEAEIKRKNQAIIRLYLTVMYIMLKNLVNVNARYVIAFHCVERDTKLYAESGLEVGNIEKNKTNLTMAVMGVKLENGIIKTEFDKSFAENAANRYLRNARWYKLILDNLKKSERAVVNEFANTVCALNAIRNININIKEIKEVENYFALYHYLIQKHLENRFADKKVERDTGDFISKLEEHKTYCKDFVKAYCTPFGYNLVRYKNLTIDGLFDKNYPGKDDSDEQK
Experiment: crRNA (strand 1, pre-loaded); Mg2+; 40 mM Tris-HCl pH 7.5, 150 mM NaCl, 6 mM MgCl2, 1 mM DTT, 0.1% Tween-20, 0.2 mg/ml BSA; 25 C; 10 min per concentration, then washed
Settings: tags: His6-TwinStrep-SUMO cleaved; N-terminal SNAP kept (SNAP-Surface 488); label: 3' end held by stalled T7 RNA polymerase
To interpret pKd, take it as minus log10 of a concentration measured in moles per litre.

Reference set, count: 3
So what's the measured pKd for this one? target 1 insG 3' of 9,insU 3' of 6 (mixed) RNA 1: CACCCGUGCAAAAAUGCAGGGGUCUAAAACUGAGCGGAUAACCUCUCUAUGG RNA 2: GGGAAUGGAUCCACAUCUACGAAUUCGUACCAUAGAGAGGUUAGUCCUGCUCACCGAGAUCGGAAGAGCACACGU
7.69

How about target 1 MT 5'PFS AAG 3'PFS UAC (mixed) RNA 1: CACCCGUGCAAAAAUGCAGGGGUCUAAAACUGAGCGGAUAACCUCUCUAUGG RNA 2: GGGAAUGGAUCCACAUCUACGAAUUCAAGCCAUAGAGAGGUUAUCCGCUCAUACAGAUCGGAAGAGCACACGU ?
7.62

How about target 1 MT 5'PFS CCU 3'PFS AUC (mixed) RNA 1: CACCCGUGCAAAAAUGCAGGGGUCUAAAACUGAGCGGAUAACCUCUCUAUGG RNA 2: GGGAAUGGAUCCACAUCUACGAAUUCCCUCCAUAGAGAGGUUAUCCGCUCAAUCAGAUCGGAAGAGCACACGU ?
7.68

New cases:
So what's the measured pKd for this one? target 1 insA 3' of 21,insG 3' of 19 (mixed) RNA 1: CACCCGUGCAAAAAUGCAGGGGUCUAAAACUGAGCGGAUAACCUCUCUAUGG RNA 2: GGGAAUGGAUCCACAUCUACGAAUUCGUACCAAUGAGAGAGGUUAUCCGCUCACCGAGAUCGGAAGAGCACACGU
7.29

Origin of values: paper PMC10786891
